Source of measurements: BigSolDB 2.1

Applied conditions: in toluene, 297.29 K
Measured endpoint: solubility (mole fraction)

**Q:** What measured solubility (mole fraction) goes with Cc1ccc(NC(=O)C(C)Cl)cc1 (stereo unspecified) ?
**A:** 0.0168

---

Applied conditions: in acetone, 294.37 K
Measured endpoint: solubility (mole fraction)
API note: the answer field is a bare number with no unit suffix.

**Q:** What measured solubility (mole fraction) goes with Cc1ccc(NC(=O)C(C)Cl)cc1 (stereo unspecified) ?
**A:** 0.0917

---

Applied conditions: in 2-butanone, 291.46 K
Measured endpoint: solubility (mole fraction)
API note: the answer field is a bare number with no unit suffix.

**Q:** What measured solubility (mole fraction) goes with Cc1ccc(NC(=O)C(C)Cl)cc1 (stereo unspecified) ?
**A:** 0.115
